// provenance: patent US20220041738A1

Molecular target: T1, human ALK2 extracellular domain with C-terminal His tag (E. coli) (human, UniProt Q04771 21-123)
T1 construct: Expressed in E. coli SHuffle T7, purified to a single band of 12 kDa; also called ALK2-ECD; human ALK2-ECD; not shown: C-terminal His tag from pET-28b(+)
T1 sequence: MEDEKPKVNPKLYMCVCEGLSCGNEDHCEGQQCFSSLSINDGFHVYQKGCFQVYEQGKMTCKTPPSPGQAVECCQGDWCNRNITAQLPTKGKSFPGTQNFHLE
Test: SPR, Biacore T200; antibody captured from culture supernatant by anti-human IgG (Fc), antigen as analyte; 1:1 binding model
result.type: pKd
Please express pKd as -log10 of the molar concentration.

{"columns": ["binder", "pKd"],
 "data": [
  ["humanized hA2-11E-H3/L2 (antibody, human IgG1, kappa, V domains shown, Human IgG1, kappa; used as culture supernatant of FreeStyle 293F cells) VH: EVQLVESGGGLVQPGGSLRLSCAASGFTFSNYYMYWIRQAPGKGLEWVSSINTDGGSTYYADSVKGRFTISRDNSKNTVYLQMNSLRAEDTAVYYCAKSTPNIPLAYWGQGTLVTVSS VL: DIQMTQSPSSLSASVGDRVTITCKASQNIYKYLNWFQQKPGKAPKLLIYYSNSLQTGVPSRFSGSGSGTDFTLTISSLQPEDFATYYCFQYSSGPTFGQGTKVEIKR", 7.20],
  ["humanized hA2-11E-H4/L4 (antibody, human IgG1, kappa, V domains shown, Human IgG1, kappa; used as culture supernatant of FreeStyle 293F cells) VH: EVQLVESGGGLVQPGGSLRLSCAASGFTFSNYYMYWIRQAPGKGLEWISSINTDGGSTYYPDSVKGRFTISRDNSKNTVYLQMNSLRAEDTAVYYCAKSTPNIPLAYWGQGTLVTVSS VL: DIQMTQSPSSLSASVGDRVTISCKASQNIYKYLNWFQQKPGEAPKLLIYYSNSLQTGIPSRFSGSGSGTDFTLTISSLQPEDFAIYFCFQYSSGPTFGPGTKVEIKR", 7.95],
  ["humanized hA2-11E-H3/L3 (antibody, human IgG1, kappa, V domains shown, Human IgG1, kappa; used as culture supernatant of FreeStyle 293F cells) VH: EVQLVESGGGLVQPGGSLRLSCAASGFTFSNYYMYWIRQAPGKGLEWVSSINTDGGSTYYADSVKGRFTISRDNSKNTVYLQMNSLRAEDTAVYYCAKSTPNIPLAYWGQGTLVTVSS VL: DIQMTQSPSSLSASVGDRVTITCKASQNIYKYLNWFQQKPGKAPKLLIYYSNSLQTGIPSRFSGSGSGTDFTLTISSLQPEDFATYYCFQYSSGPTFGQGTKVEIKR", 7.32],
  ["humanized hA2-11E-H4/L2 (antibody, human IgG1, kappa, V domains shown, Human IgG1, kappa; used as culture supernatant of FreeStyle 293F cells) VH: EVQLVESGGGLVQPGGSLRLSCAASGFTFSNYYMYWIRQAPGKGLEWISSINTDGGSTYYPDSVKGRFTISRDNSKNTVYLQMNSLRAEDTAVYYCAKSTPNIPLAYWGQGTLVTVSS VL: DIQMTQSPSSLSASVGDRVTITCKASQNIYKYLNWFQQKPGKAPKLLIYYSNSLQTGVPSRFSGSGSGTDFTLTISSLQPEDFATYYCFQYSSGPTFGQGTKVEIKR", 7.70],
  ["humanized hA2-25C-H3/L3 (antibody, human IgG1, kappa, V domains shown, Human IgG1, kappa; used as culture supernatant of FreeStyle 293F cells) VH: EVQLVESGGGLVQPGGSLRLSCAASGFTFSYYAMSWVRQAPGKGLEWVASISRGGDNTYYRDSVKGRFTTSRDNSKNTLYLQMNSLRAEDTAVYYCARLNYNNYFDYWGQGTLVTVSS VL: DIQMTQSPSSLSASVGDRVTITCQASQDIGNWLSWYQQKPGKSPKLLIYGATSLADGVPSRFSGSRSGTQYTLTISSLQPEDFATYYCLQAYSAPFTFGSGTKVEIKR", 7.19],
  ["humanized hA2-25C-H4/L3 (antibody, human IgG1, kappa, V domains shown, Human IgG1, kappa; used as culture supernatant of FreeStyle 293F cells) VH: EVQLVESGGGLVQPGGSLRLSCAASGFTFSYYAMSWVRQAPGKGLEWVASISRGGDNTYYRDSVKGRFTTSRDNSKNTLYLQMNSLRAEDTATYYCARLNYNNYFDYWGQGVLVTVSS VL: DIQMTQSPSSLSASVGDRVTITCQASQDIGNWLSWYQQKPGKSPKLLIYGATSLADGVPSRFSGSRSGTQYTLTISSLQPEDFATYYCLQAYSAPFTFGSGTKVEIKR", 7.55]
]}

Determine its reported pKd: humanized hA2-11E-H3/L4 (antibody, human IgG1, kappa, V domains shown, Human IgG1, kappa; used as culture supernatant of FreeStyle 293F cells) VH: EVQLVESGGGLVQPGGSLRLSCAASGFTFSNYYMYWIRQAPGKGLEWVSSINTDGGSTYYADSVKGRFTISRDNSKNTVYLQMNSLRAEDTAVYYCAKSTPNIPLAYWGQGTLVTVSS VL: DIQMTQSPSSLSASVGDRVTISCKASQNIYKYLNWFQQKPGEAPKLLIYYSNSLQTGIPSRFSGSGSGTDFTLTISSLQPEDFAIYFCFQYSSGPTFGPGTKVEIKR
7.50

Determine its reported pKd: humanized hA2-25C-H3/L2 (antibody, human IgG1, kappa, V domains shown, Human IgG1, kappa; used as culture supernatant of FreeStyle 293F cells) VH: EVQLVESGGGLVQPGGSLRLSCAASGFTFSYYAMSWVRQAPGKGLEWVASISRGGDNTYYRDSVKGRFTTSRDNSKNTLYLQMNSLRAEDTAVYYCARLNYNNYFDYWGQGTLVTVSS VL: DIQMTQSPSSLSASVGDRVTITCQASQDIGNWLSWYQQKPGKAPKLLIYGATSLADGVPSRFSGSRSGTDYTLTISSLQPEDFATYYCLQAYSAPFTFGQGTKVEIKR
7.27

Determine its reported pKd: humanized hA2-25C-H4/L1 (antibody, human IgG1, kappa, V domains shown, Human IgG1, kappa; used as culture supernatant of FreeStyle 293F cells) VH: EVQLVESGGGLVQPGGSLRLSCAASGFTFSYYAMSWVRQAPGKGLEWVASISRGGDNTYYRDSVKGRFTTSRDNSKNTLYLQMNSLRAEDTATYYCARLNYNNYFDYWGQGVLVTVSS VL: DIQMTQSPSSLSASVGDRVTITCQASQDIGNWLSWYQQKPGKAPKLLIYGATSLADGVPSRFSGSGSGTDFTLTISSLQPEDFATYYCLQAYSAPFTFGQGTKVEIKR
7.09

Determine its reported pKd: humanized hA2-11E-H4/L3 (antibody, human IgG1, kappa, V domains shown, Human IgG1, kappa; used as culture supernatant of FreeStyle 293F cells) VH: EVQLVESGGGLVQPGGSLRLSCAASGFTFSNYYMYWIRQAPGKGLEWISSINTDGGSTYYPDSVKGRFTISRDNSKNTVYLQMNSLRAEDTAVYYCAKSTPNIPLAYWGQGTLVTVSS VL: DIQMTQSPSSLSASVGDRVTITCKASQNIYKYLNWFQQKPGKAPKLLIYYSNSLQTGIPSRFSGSGSGTDFTLTISSLQPEDFATYYCFQYSSGPTFGQGTKVEIKR
7.73

Determine its reported pKd: humanized hA2-25C-H3/L1 (antibody, human IgG1, kappa, V domains shown, Human IgG1, kappa; used as culture supernatant of FreeStyle 293F cells) VH: EVQLVESGGGLVQPGGSLRLSCAASGFTFSYYAMSWVRQAPGKGLEWVASISRGGDNTYYRDSVKGRFTTSRDNSKNTLYLQMNSLRAEDTAVYYCARLNYNNYFDYWGQGTLVTVSS VL: DIQMTQSPSSLSASVGDRVTITCQASQDIGNWLSWYQQKPGKAPKLLIYGATSLADGVPSRFSGSGSGTDFTLTISSLQPEDFATYYCLQAYSAPFTFGQGTKVEIKR
6.94
